Cited source: PubChem BioAssay AID646

# experimental system: D(1A) dopamine receptor (Homo sapiens) (UniProt P21728)
# Sequence (P21728 whole entry, looked up): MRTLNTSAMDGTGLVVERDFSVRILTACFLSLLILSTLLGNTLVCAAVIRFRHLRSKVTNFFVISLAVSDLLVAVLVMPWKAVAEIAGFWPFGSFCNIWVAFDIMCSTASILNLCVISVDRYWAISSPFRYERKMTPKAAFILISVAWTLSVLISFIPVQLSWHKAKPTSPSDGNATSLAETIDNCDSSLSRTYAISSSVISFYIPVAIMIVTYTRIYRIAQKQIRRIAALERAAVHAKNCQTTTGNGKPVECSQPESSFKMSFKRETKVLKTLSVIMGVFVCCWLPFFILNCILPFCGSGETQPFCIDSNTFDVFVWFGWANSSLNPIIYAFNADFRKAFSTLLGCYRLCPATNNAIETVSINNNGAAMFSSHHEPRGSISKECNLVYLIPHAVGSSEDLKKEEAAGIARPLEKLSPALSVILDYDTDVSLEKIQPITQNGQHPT
# assay explanation: D1 receptor agonism without dopamine, confirmation, mechanism study for D1 allosteric modulator project, cell-based, HEK293 D1, CRE-luciferase, secondary assay 1 (AID 646)
# stated conditions: no dopamine, at 10 µM, stronger effect = higher value
About 15 (0.8%) of roughly 1,900 compounds were called active. A selection follows.
Assign luminescence to each entry below.
Numbers only.

As a guide, the following entries are already answered.
compound	experimental system	measured metric	recorded number
Cc1ccc(-c2nn(-c3ccccc3)cc2CN(Cc2ccccc2)C(=O)CCC(=O)O)o1	D(1A) dopamine receptor (Homo sapiens) (UniProt P21728)	luminescence	1420
CCSc1nc(C)nc2c1oc1ccccc12	D(1A) dopamine receptor (Homo sapiens) (UniProt P21728)	luminescence	1590
COc1ccc(-n2c(Cc3cccn3C)nnc2SCC(=O)Nc2cc(C)cc(C)c2)cc1	D(1A) dopamine receptor (Homo sapiens) (UniProt P21728)	luminescence	1500
CCOc1ccccc1C1CC(c2ccccc2)Nc2nc(N)nn21 (stereo unspecified)	D(1A) dopamine receptor (Homo sapiens) (UniProt P21728)	luminescence	1700
Nc1ccc(S(=O)(=O)NC(=O)c2ccccc2)cc1	D(1A) dopamine receptor (Homo sapiens) (UniProt P21728)	luminescence	1560

// luminescence value for "c1ccc(COc2nsnc2N2CCOCC2)cc1" : 1550

---

# experimental system: D(1A) dopamine receptor (Homo sapiens) (UniProt P21728)
# assay explanation: D1 receptor agonism without dopamine, confirmation, mechanism study for D1 allosteric modulator project, cell-based, HEK293 D1, CRE-luciferase, secondary assay 1 (AID 646)
# stated conditions: no dopamine, at 10 µM, stronger effect = higher value
Screen size: about 1,900 compounds; about 15 (0.8%) were called active. These entries were drawn from the full list.
measured metric: luminescence
Numbers only.

As a guide, the following entries are already answered.
compound	luminescence
COc1ccc(S(=O)(=O)Nc2ccc(S(=O)(=O)N3CCCCC3)cc2)cc1OC	1540
CC(C)C1C2=C(CC(C)(C)CC2=O)ON1c1ccccc1 (centres undefined)	1810
c1coc(-c2nc3nc4ccccc4n3nc2-c2ccco2)c1	1610
N#Cc1nc(Cc2ccccc2)oc1NCCc1ccccc1	1730
CCOC(=O)c1c(NC(=O)CSc2nnc(Cc3csc(N)n3)n2C)sc(C)c1C	1680
CCCc1nc(N)nc2c1C(=O)CC(C)(C)C2	1560
COC(=O)[C@H](C(C)C)n1c(C)c(C(C)=O)c(C(C)=O)c1C	1540
N#Cc1c(N)sc2c1CCN(C(=O)OCc1ccccc1)C2	1760
CC1(C)Cc2ccccc2-c2nc(CN3CCOCC3)[nH]c(=O)c21	1890
Cc1ccc(S(=O)(=O)c2c(N)n(C)c3nc4ccccc4nc23)cc1	1580

Required: luminescence, one value per compound below.
1. CCOC(=O)/C=c1\s/c(=C\c2ccccc2OC)c(=O)n1CC(=O)N1CCOCC1
2. CCn1ncc(C2=NOC(C(=O)Nc3ccccc3C(=O)OC)C2)c1C (centres undefined)
3. CCn1nc(C(=O)OCC(=O)N2c3ccccc3CC2C)c2ccccc2c1=O (centres undefined)
4. COc1ccc(CCNC(=O)c2cc3sccc3n2C)cc1OC

1: 1600; 2: 1280; 3: 1520; 4: 1640

Required: luminescence, one value per compound below.
1. N#CCSc1nc2ccccc2c(=O)n1-c1ccccc1
2. CCOc1ccc2c(c1)cc(CN(C(=O)CC)C1CCCCC1)c1nnnn12
3. COc1ccc(Nc2oc(-c3ccccc3Cl)nc2C#N)cc1

1780
1650
1750

Required: luminescence, one value per compound below.
1. CN(C)c1nc(N)nc(CSc2nnnn2-c2cccc3ccccc23)n1
2. N#Cc1nc(N)nc(N(c2ccccc2)c2ccccc2)n1
3. CCOC(=O)c1cc(C)sc1NC(=O)C1CCC1
4. O=S(=O)(c1cccs1)N1CCc2ccccc2C1
5. COC(=O)c1ccccc1NC(=O)C1CCN(S(=O)(=O)c2cc(OC)ccc2OC)CC1
6. C/C(=C\C(=O)c1ccccc1)Nc1cccc(O)c1

792
1620
2190
1530
1480
1340

// luminescence value for "CCSc1ncnc2c(C#N)c3n(c12)CCCCC3" : 1840
